test: NCI Yeast Anticancer Drug Screen. Data for the mec2-1 strain (AID 157); conditions: S. cerevisiae mec2-1 strain, at 50.0 µM, hits give high values
Compounds without any hit were thinned out: in the full panel of roughly 79,000, 15% have a hit.
readoutName: growth inhibition (%)
Give just the number in %; leave the unit off.

Item: CCOC(=O)C(=O)O | growth inhibition: -9.3

Item: COC(=O)C1c2ccccc2CC(=O)N1N (stereo unspecified) | growth inhibition: -8.5

Item: CCc1cccc(CC)c1N1C(=O)C(=O)C(C(C)=O)C1=O (stereo unspecified) | growth inhibition: -4.45

Item: O=C(COc1cc(Cl)c(Cl)cc1Cl)Nc1c(Cl)cc(Cl)cc1Cl | growth inhibition: 5.8

Item: CC(=O)C1(N=Nc2ccc(S(N)(=O)=O)cc2)CCOC1=O (stereo unspecified) | growth inhibition: -11.3

Item: CCCCCCCCC[N+]12CC[N+](CCCCCCCCC)(CC1)CC2 | growth inhibition: 15.2

* * *

assay: NCI Yeast Anticancer Drug Screen. Data for the mec2-1 strain (AID 157); conditions: S. cerevisiae mec2-1 strain, at 50.0 µM, hits give high values
This is part of a sample that, as a whole, favours compounds with a hit. Of some 79,000 tested, about 15% had one in any assay.
For each of the molecules below, state its growth inhibition.
Give just the number in %; leave the unit off.

Item: CC(=O)C1CCC2C3CC=C4CC(O)C=CC4(C)C3CCC12C (stereo unspecified) | growth inhibition: 22.1

Item: Cc1cc(C(=O)CSC(=S)SC(C)(C)C)ccc1Cl | growth inhibition: -30.1

Item: COC(=O)C(Cc1ccccc1)NC(=O)Cn1ccnc1[N+](=O)[O-] (stereo unspecified) | growth inhibition: -19.6

Item: COc1cc(C(=O)C/C(CCC(=O)Nc2ccc(Cl)cc2Cl)=N/NC(=O)C(N)=O)ccc1O | growth inhibition: -2.45

Item: C#CC(C)(C)OCC(O)CCl (stereo unspecified) | growth inhibition: 5.65

Item: O=C1CC(c2ccccc2)C(c2ccccc2)C1C(=O)OC1CCCCC1 (stereo unspecified) | growth inhibition: 2.85

Item: O=C(NNC(=O)c1cccc(F)c1)c1cccc(F)c1 | growth inhibition: -8.1

Item: Oc1c(C(O)N2CCOCC2)cc(C(O)N2CCOCC2)c(O)c1O (stereo unspecified) (tested in a mixture with another compound) | growth inhibition: -11.1

Item: NC(N)=N/N=C/c1c(-c2ccc(Cl)cc2)nc2n1CCS2 | growth inhibition: -51.6

Item: COC1(OC)CCCc2c1no[n+]2[O-] | growth inhibition: -11.3

Item: CCCCN1C(=O)CC2[C@@H]3CCc4cc(OC)ccc4C3CC[C@]2(C)C1=O (stereo partly specified) | growth inhibition: 11.6

Item: COC1=C(C(C2=C(OC)CC(C)(C)CC2=O)c2ccc3c(c2)OCO3)C(=O)CC(C)(C)C1 | growth inhibition: 7.7

Item: O=C1CSC(=S)N1c1ccco1 | growth inhibition: -20.1

Item: N#C/C(=C/NC(=S)Nc1ccc(S(N)(=O)=O)cc1)C(N)=O | growth inhibition: -89

Item: Cc1cccc([Si](c2ccccc2)(c2ccccc2)c2ccccc2)c1 | growth inhibition: -6.35

Item: CCCCn1cnc2ccc3[nH]c(C)nc3c2c1=O | growth inhibition: -4.85

* * *

Assay: NCI Yeast Anticancer Drug Screen. Data for the mec2-1 strain (AID 157)
Details: S. cerevisiae mec2-1 strain, at 50.0 µM, hits give high values
Protocol: Growth inhibition of yeast strains with defined genetic alterations is measured as a screen for potential anti-cancer activity. Selected strains with alterations in DNA damage repair or cell cycle control were exposed to compounds and growth inhibition was measured relative to vehicle treated controls. The strain used in this assay is mec2-1
This is part of a sample that, as a whole, favours compounds with a hit. Of some 79,000 tested, about 15% had one in any assay. Where a SMILES comes first, the peptide text is derived from it. Bridges are numbered along the chain shown (N, C = ends). [ ]: non-standard residue; d: D form. The star is where a group is joined. PhAc = O=C(Cc1ccccc1)*
readoutName: growth inhibition (%)
Give just the number in %; leave the unit off.

Item: COc1ccc(COC(=O)NC2CCCCC2)cc1OC | growth inhibition: 19.9

Item: CC(=O)Nc1cc2c(cc1Br)-c1ccc(Br)cc1C2 | growth inhibition: 8.4

Item: O=C(NCCNc1ccccc1)C12CC3CC(CC(C3)C1)C2 | growth inhibition: 1.35

Item: O=C1c2ccccc2C(=O)N1Br | growth inhibition: -19.5

Item: c1ccc(NCNC2Nc3ccccc3N2)cc1 | growth inhibition: -13.2

Item: CC1(C)C=CC=C(C(=O)O)C=C1 | growth inhibition: -24

Item: S=C(Nc1ccccc1)NC1SNC(=Nc2ccccc2)N1c1ccccc1 (centres undefined) | growth inhibition: 99.4

Item: c1ccc(SCCc2ccncc2)cc1 | growth inhibition: 23.8

Item: CC(=O)SCCCCl | growth inhibition: 2.1

Item: O=P(Nc1ccc(Cl)cc1)(c1ccc(Cl)cc1)c1ccc(Cl)cc1 | growth inhibition: 6.05

Item: CC(=O)O[C@H]1CC[C@@]2(C)[C@@H](CC[C@@H]3[C@@H]2CC[C@]2(C)[C@@H](C(=O)CCC(F)(F)F)CC[C@@H]32)C1 | growth inhibition: 20.9

Item: CCCC(C)(CCC)OC(=O)Nc1cccc2ccccc12 | growth inhibition: -4.2

Item: CCc1ccccc1NC(=O)/C(CC(=O)c1c(C)n([O-])c2ccccc2[n+]1=O)=N\NS(=O)(=O)c1ccc(C)cc1 | growth inhibition: -8.25

Item: CCc1c(Cc2[nH]c(Cc3[nH]c(C=O)c(C)c3CC)c(CC)c2CC)[nH]c(C=O)c1C | growth inhibition: -7.5

Item: N[C@@H]1CCCC[C@H]1O | growth inhibition: -5.5

Item: C[Si](C)(C)CCCn1ccc(=O)[nH]c1=O | growth inhibition: 7.45

Item: CN1CCn2c(Br)ccc2C1=O | growth inhibition: -11.6

Item: CCCCOC(=O)c1cc(/C=C\c2ccccc2)on1 | growth inhibition: -2.45

Item: COc1ccc(-c2coc3cc(O)cc(O)c3c2=O)cc1 | growth inhibition: 22.6

Item: O=S(=O)(O)ON=C1c2ccccc2-c2ccccc21 | growth inhibition: -10.7

Item: COc1ccc(OC)c(/C=C/c2cnnc3ccccc23)c1 | growth inhibition: 12.8

Item: COc1ccc(C(=O)c2cccc(C(=O)c3ccc(OC)cc3)c2)cc1 | growth inhibition: -19.4

Item: O=C(Cc1ccccc1)N[C@@H]1COC(=O)[C@@H]2CCCN2C(=O)[C@@H]2CCCN2C1=O (PhAc-[dS]-Pro-Pro; ester 1-C) | growth inhibition: 5.85

Item: CC(C)(C)n1nc(C2CC2)c(Br)c1NC(=O)c1ccc(Cl)cc1 | growth inhibition: -0.95

Item: N#CC(N)(C(=O)CCC(=O)Nc1cccc(Cl)c1)c1ccc(Cl)cc1 (centres undefined) | growth inhibition: 12.6

Item: NC(CCCOS(=O)(=O)O)Cc1ccc2ccccc2c1 (centres undefined) | growth inhibition: 9.35

Item: c1ccc(N=C(Nc2ccccc2)N2CCCC2)cc1 | growth inhibition: -13.6

Item: Nc1cc(=O)[nH]c(NCCCC(N)C(=O)O)n1 (centres undefined) | growth inhibition: 8.8

Item: O=C(COc1ccccc1)OC1CCCC1 | growth inhibition: -13.4

Item: C/C(N=NS(=O)(=O)c1ccc(C)cc1)=C1\C=CC=CN1O | growth inhibition: -14.7

Item: c1ccc(COC2C3COC(O3)C(OCc3ccccc3)C2OCc2ccccc2)cc1 (centres undefined) | growth inhibition: -1.7

Item: CCOC(=O)c1cnc2c(ccc3ncccc32)c1OCC | growth inhibition: -23.1

Item: N=C(N)n1ncc2c1CCCC2=O | growth inhibition: 19.9

Item: COc1ccc(C(CCOS(=O)(=O)c2ccc(Br)cc2)(c2ccc(OC)cc2)c2ccc(OC)cc2)cc1 | growth inhibition: 12.8

Item: O=C(Nc1cccc(Cl)c1)Nc1ccc(Sc2ccc(Cl)cc2)o1 | growth inhibition: 7

Item: O=C1c2ccsc2C(=O)c2sc(CO)cc21 | growth inhibition: 91.2

Item: CCCCNc1nc2c(=O)n(C)c(=O)n(C)c2s1 | growth inhibition: -0.6

Item: O=C(CC(=O)n1nc(-c2ccccc2)c(N=Nc2ccc([N+](=O)[O-])cc2)c1-c1ccccc1)Nc1ccc(Cl)cc1 | growth inhibition: 3.1

Item: N#C/C(=C/C=C/c1ccccc1)c1ccc([N+](=O)[O-])cc1 | growth inhibition: 23.4

* * *

Experiment: NCI Yeast Anticancer Drug Screen. Data for the sgs1 mgt1 strain (AID 161);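 further: 0% = growth of cultures given vehicle only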
Details: S. cerevisiae sgs1 mgt1 strain, at 50.0 µM, hits give high values
Experimental: Growth inhibition of yeast strains with defined genetic alterations is measured as a screen for potential anti-cancer activity. Selected strains with alterations in DNA damage repair or cell cycle control were exposed to compounds and growth inhibition was measured relative to vehicle treated controls. The strain used in this assay is sgs1 mgt1
This is part of a sample that, as a whole, favours compounds with a hit. Of some 79,000 tested, about 15% had one in any assay. Activity calls are given as the source filed them. Rule as the data show it: active = growth inhibition above about 70%; inactive = the rest.
readoutName: growth inhibition

Item: CCOC(=O)c1c(SC(=O)c2ccc(C(C)(C)C)cc2)n(-c2ccccc2)c(=S)n(-c2ccccc2)c1=O | growth inhibition: 26.8% (inactive)

Item: Cc1cccc(SC(=O)Nc2cc([N+](=O)[O-])ccc2Cl)c1 | growth inhibition: 11.6% (inactive)

Item: O=c1c(Cl)c(Cl)cnn1CCc1ccncc1 | growth inhibition: -19.6% (inactive)

Item: Nc1cc(=O)[nH]c(NCCCC(N)C(=O)O)n1 (stereo not given) | growth inhibition: 6.55% (inactive)

Item: COc1cc(Nc2nc3ccccc3nc2C(=O)O)cc(OC)c1OC | growth inhibition: -16.1% (inactive)
